SYSTEM UNDER TEST: Gastrin/cholecystokinin type B receptor (Cavia porcellus)
ASSAY SUMMARY: Inhibition of [125I]Cholecystokinin-8 binding to Cholecystokinin type B receptor of guinea pig cerebral cortical membranes
READOUT: pIC50
pIC50 (log units): -log10 of the concentration in mol/L.

Query: So what's the measured pIC50 for this one? Cc1cccc(NC(=O)NC2N=C(c3ccccc3F)c3cccc(C)c3N(CC(=O)N3CC4CCC(CC4)C3)C2=O)c1 (centres undefined)
Response: 9.33

Query: Which pIC50 value is on record for CSc1cccc(NC(=O)NC2N=C(c3ccccc3F)c3cccc(C)c3N(CC(=O)N3CC4CCC(CC4)C3)C2=O)c1 (centres undefined) ?
Response: 9.43

Query: What value of measured pIC50 is listed for Cc1cccc2c1N(CC(=O)N1CC3CCC(CC3)C1)C(=O)C(NC(=O)Nc1cccc(Br)c1)N=C2c1ccccc1F (centres undefined) ?
Response: 8.74

Query: Look up pIC50 for this molecule: Cc1cccc(NC(=O)NC2N=C(c3ccccc3F)c3ccccc3N(CC(=O)N3CC4CCC(CC4)C3)C2=O)c1 (centres undefined)
Response: 10.06

* * *

ASSAY SUMMARY: Inhibition of [125I]-Cholecystokinin-8 (125I-CCK-8) binding to Cholecystokinin type B receptor of guinea pig cerebral cortical membranes
READOUT: IC50 (nM)
Report the value in nM with no unit label.

Query: Quick check: IC50 of Cc1cccc2c1N(CC(=O)N1CC3CCC(CC3)C1)C(=O)C(NC(=O)Nc1cccc(-c3nnn[nH]3)c1)N=C2c1ccccc1F (stereo unspecified) ?
Response: 6.4

* * *

SYSTEM UNDER TEST: Gastrin/cholecystokinin type B receptor (Cavia porcellus)
ASSAY SUMMARY: Inhibition of [125I]Cholecystokinin-8 binding to Cholecystokinin type B receptor of guinea pig cerebral cortical membranes
So I've got a bunch of compounds here, and I need their pIC50 values.
pIC50 (log units): -log10 of the concentration in mol/L.

Query: Name the recorded pIC50 for CC(=O)c1cccc(NC(=O)NC2N=C(c3ccccc3F)c3cccc(C)c3N(CC(=O)N3CC4CCC(CC4)C3)C2=O)c1 (centres undefined) .
Response: 9.08

Query: Find the recorded pIC50 belonging to Cc1cccc2c1N(CC(=O)N1CC3CCC(CC3)C1)C(=O)C(NC(=O)Nc1cccc(C(=O)O)c1)N=C2c1ccccc1F (centres undefined) and report it.
Response: 9.02

Query: What value of measured pIC50 is listed for COc1cccc(NC(=O)NC2N=C(c3ccccc3F)c3cccc(C)c3N(CC(=O)N3CC4CCC(CC4)C3)C2=O)c1 (centres undefined) ?
Response: 9.00

Query: Would you kindly share the measured pIC50 for Cc1cccc2c1N(CC(=O)N1CC3CCC(CC3)C1)C(=O)C(NC(=O)Nc1cccc(Cl)c1)N=C2c1ccccc1F (centres undefined) ?
Response: 8.70
